assay-remarks: inhibitors of Bluetongue virus cytopathic effect, confirmation, arbovirus, BSR cells (AID 1250)
measurement-setup: BSR cells, Bluetongue virus CPE, ATP luminescence, 72 h; at 20 µM (top of the series)
Can you tell me CPE inhibition for the items I'm about to list?
# value in %; strip the unit string

Enquiry: Record request: CPE inhibition value, item O=C(O)CSc1nnc(CNc2cccc(C(F)(F)F)c2)n1Cc1ccco1
Return: 3.89

Enquiry: # query: CPE inhibition of entry COc1cc(C(=O)Nc2sc(C)c(C)c2C(=O)O)cc(OC)c1OC
Return: 26

Enquiry: Quick check: CPE inhibition of CCOC(=O)c1c(O)c2c(n(Cc3ccco3)c1=O)CCCC2 ?
Return: 14.7

Enquiry: Which CPE inhibition value is on record for CC1CCN(C2=NC(=O)/C(=C/c3cn[nH]c3-c3ccccc3)S2)CC1 ?
Return: -2.7

Enquiry: What does the record list as CPE inhibition for CCc1cc2c(=O)c(-c3cscn3)coc2c(CN(C)C)c1O ?
Return: 5.92

Enquiry: # query: CPE inhibition of entry Cc1nn2c(-c3ccccc3)c(-c3ccccc3)nc2[nH]c1=O
Return: 9.59

Enquiry: Value lookup for CPE inhibition; key = CC1Cc2ccccc2N1S(=O)(=O)c1cccc(C(=O)N2CCN(c3ncccn3)CC2)c1 (stereo unspecified)
Return: 19.4

Enquiry: Data request, read-out CPE inhibition, for COc1ccc(OC)c(/C=N\NC(=O)CC(=O)NCCc2ccccc2)c1
Return: -1.6

Enquiry: Reported CPE inhibition, compound COc1ccc(CCN(C)Cc2ccc(F)cc2F)cc1OC : ____
Return: 3.03

Enquiry: Data request, read-out CPE inhibition, for OCCNc1nc(Nc2ccccc2)nc2ccccc12
Return: 15.3

Enquiry: GET /values?readout=CPE inhibition&item= COc1ccc(Br)cc1CN(C)CC(=O)Nc1c(Cl)cccc1Cl
Return: 28.5

---

Record form. Attribute: CPE inhibition. Fill in for each entry.
assay-remarks: inhibitors of Bluetongue virus cytopathic effect, confirmation, arbovirus, BSR cells (AID 1250)
measurement-setup: BSR cells, Bluetongue virus CPE, ATP luminescence, 72 h; at 20 µM (top of the series)
The source made the active and inactive calls.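 The calls were made as follows: active = inhibition of at least 30% at one or more tested concentrations; inactive = inhibition below 30% at every dose.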

Enquiry: What does the record list as CPE inhibition for O=C(CCn1c(=O)sc2ccccc21)NCCCn1ccnc1 ?
Return: 4.88% (inactive)

Enquiry: Quick one: CPE inhibition of COc1ccc2cc(-c3cc(C(=O)O)c4ccccc4n3)ccc2c1 ?
Return: 12.7% (inactive)

Enquiry: Which CPE inhibition value belongs to COc1cccc(C2CC(c3ccc(Cl)cc3Cl)Nc3nc(N)nn32)c1 (stereo unspecified) ?
Return: 2.82% (inactive)

Enquiry: Fill in the blank: the reported CPE inhibition of COC(=O)c1ccccc1N/C=C/C(=O)c1ccc(Br)cc1 is ____.
Return: 28.6% (inactive)

Enquiry: Dear colleague, I am looking for the recorded CPE inhibition of the following compound: CC1=Nc2ccc(C)cc2/C1=C/c1c(N)n2c(S(=O)(=O)C(C)C)nsc2nc1=O
Return: 15.9% (inactive)

Enquiry: Can you look up the measured CPE inhibition of O=C(CCl)N=c1sccn1Cc1cccc2ccccc12 for me?
Return: 7.67% (inactive)

Enquiry: Item under review: Nc1[nH]nc2nc(NCc3ccccc3)c3c(c12)CCN(Cc1ccccc1)C3 . Reported CPE inhibition?
Return: 10.8% (inactive)

Enquiry: Quick check: CPE inhibition of COCCn1c(-c2ccc(Cl)cc2)cnc1SCC(=O)NCc1cccs1 ?
Return: 18.9% (inactive)

Enquiry: Looking for the measured CPE inhibition of COc1ccc(-c2nc(C3CCCCC3)no2)cc1OC , can you help?
Return: 8.02% (inactive)

Enquiry: Which CPE inhibition is reported for this compound? N#Cc1c(-c2ccccc2)nc(SCC(=O)N(c2ccccc2)c2ccccc2)[nH]c1=O
Return: 12.2% (inactive)

Enquiry: For CCOC(=O)c1c(NC(=O)CSc2ncn[nH]2)sc(C)c1C , what is its reported CPE inhibition?
Return: 21% (inactive)
